Data provenance: patent US20240269304A1

Test system: H1650 cells
Test: CellTiterGlo (CTG) cell viability, 3D, 120 h, H1650 (Example 8)
Assay type: cell-based, human
Settings: Homo sapiens, NCI-H1650, H1650 3D, experiment n1, read-out: H1650 3D CTG IC50 n1
Method: H1650 cells were cultivated in RPMI supplemented with 10% heat inactivated fetal bovine serum, penicillin (100 IU/ml), streptomycin (100 μg/ml) and L-glutamine (2 mM). Cell lines were cultured at 37° C. in a humidified atmosphere containing 5% 002. […] Effects of payloads or ADCs on cell viability were assessed after 5 days of incubation at 37° C./5% CO2 by quantification of cellular ATP levels using CellTiterGlo at 75 μL reagent/well. […] Luminescence was quantified on a multipurpose plate reader. […]
pIC50: −log10 of the molar value.
recorded endpoint: pIC50

Consider the following illustrative entries.
- compound: "Cc1c(Nc2nc3ccccc3s2)nnc2c1CCCN2c1ccc(-c2cnn(CC34CC5(C)CC(C)(CC(CCCN(C)C)(C5)C3)C4)c2C)c(C(=O)O)n1"
  pIC50: 9.31
- compound: "Cc1c(Nc2nc3ccccc3s2)nnc2c1CCCN2c1ccc(-c2cnn(CC34CC5(C)CC(C)(C3)CC(OCCN3CCCC3)(C5)C4)c2C)c(C(=O)N2CCCC2)n1"
  pIC50: 8.70
- compound: "Cc1cc(N(C)c2nc(C(=O)O)c(CCCOc3ccc(C#CC(C)N(C)C)cc3F)s2)nnc1Nc1nc2ccccc2s1 (centres unmarked)"
  pIC50: 9.15
- compound: "Cc1c(Nc2nc3ccccc3s2)nnc2c1CCCN2c1ccc(-c2cnn(C[C@]34C[C@]5(C)C[C@](C)(C3)C[C@@](OCCN3CCNCC3)(C5)C4)c2C)c(C(=O)O)n1"
  pIC50: 9.24

1 = Cc1c(Nc2nc3ccccc3s2)nnc2c1CCCN2c1ccc(-c2cnn(C[C@]34C[C@]5(C)C[C@](C)(C3)C[C@@](OCCN3CCCC3)(C5)C4)c2C)c(C(=O)O)n1
2 = Cc1c(Nc2nc3ccccc3s2)nnc2c1CCCN2c1ccc(-c2cnn(CC34CC5(C)CC(C)(CC(CCCN(C)CCO)(C5)C3)C4)c2C)c(C(=O)O)n1
Query block: Just tell me: smaller pIC50 value, 1 or 2 ? Answer = label.
Result block: 2
(2: 8.89, 1: 9.51)

P = Cc1c(Nc2nc3ccccc3s2)nnc2c1CCCN2c1ccc(-c2cnn(C[C@]34C[C@]5(C)C[C@](C)(C3)C[C@@](OCCNCC[C@H](O)CO)(C5)C4)c2C)c(C(=O)O)n1
Q = Cc1c(Nc2nc3ccccc3s2)nnc2c1CCCN2c1ccc(-c2cnn(CC34CC5(C)CC(C)(C3)CC(OCCNCCC(=O)O)(C5)C4)c2C)c(C(=O)O)n1
Query block: Just tell me: smaller pIC50 value, P or Q ? Answer = label.
Result block: Q

I = Cc1c(Nc2nc3ccccc3s2)nnc2c1CCCN2c1nc(C(=O)O)c(CCCOc2ccc(C#CCN3CCNCC3)cc2F)s1
II = Cc1c(Nc2nc3ccccc3s2)nnc2c1CCCN2c1ccc(-c2cnn(CC34CC5(C)CC(C)(CC(CCCN(C)CCCC(=O)O)(C5)C3)C4)c2C)c(C(=O)O)n1
Query block: Kindly identify which of I and II has the larger recorded pIC50 value. Answer = label.
Result block: I
(I: 8.50, II: 8.24)

1 = Cc1c(Nc2nc3ccccc3s2)nnc2c1CCCN2c1ccc(-c2cnn(CC34CC5(C)CC(C)(C3)CC(OCCN3CCN(C)CC3)(C5)C4)c2C)c(C(=O)O)n1
2 = Cc1cc(N(C)c2ccc(-c3cnn(C[C@]45C[C@]6(C)C[C@](C)(C4)C[C@@](OCCNCCCO)(C6)C5)c3C)c(C(=O)O)n2)nnc1Nc1nc2ccccc2s1
Query block: Just tell me: smaller pIC50 value, 1 or 2 ? Answer = label.
Result block: 2
(2: 9.17, 1: 9.44)

a = Cc1c(Nc2nc3ccccc3s2)nnc2c1CCCN2c1nc(C(=O)O)c(CCCOc2ccc(C#CCN3CCN(C)CC3)cc2F)s1
b = Cc1c(Nc2nc3cc(F)ccc3s2)nnc2c1CCCN2c1ccc(-c2cnn(CC34CC5(C)CC(C)(C3)CC(OCCN3CCCC3)(C5)C4)c2C)c(C(=O)O)n1
c = Cc1c(Nc2nc3ccccc3s2)nnc2c1CCCN2c1ccc(-c2cnn(CC34CC5(C)CC(C)(C3)CC(OCCN(C)CCCO)(C5)C4)c2C)c(C(=O)O)n1
d = Cc1c(Nc2nc3ccccc3s2)nnc2c1CCCN2c1ccc(-c2cnn(CC34CC5(C)CC(C)(CC(CCCN(C)CC(=O)O)(C5)C3)C4)c2C)c(C(=O)O)n1
Query block: Order the records by pIC50, with each subsequent value no larger than the one before. Output spec: a listing of the labels in the requested order.
Result block: a, c, b, d

A = Cc1c(Nc2nc3ccccc3s2)nnc2c1CCCN2c1ccc(-c2cnn(C[C@]34C[C@]5(C)C[C@](C)(C3)C[C@@](OCCN(C)CCO)(C5)C4)c2C)c(C(=O)O)n1
B = COc1ccc2sc(Nc3nnc4c(c3C)CCCN4c3ccc(-c4cnn(C[C@]56C[C@]7(C)C[C@](C)(C5)C[C@@](OCCN5CCCC5)(C7)C6)c4C)c(C(=O)O)n3)nc2c1
Query block: Kindly identify which of A and B has the larger recorded pIC50 value. Answer = label.
Result block: A
(A: 9.64, B: 9.28)

1 = Cc1c(Nc2nc3ccccc3s2)nnc2c1CCCN2c1ccc(-c2cnn(CC34CC5(C)CC(C)(C3)CC(OCCN(C)CCCC(=O)O)(C5)C4)c2C)c(C(=O)O)n1
2 = Cc1c(Nc2nc3ccccc3s2)nnc2c1CCCN2c1ccc(-c2cnn(CC34CC5(C)CC(C)(C3)CC(OCCN3CCCC3)(C5)C4)c2C)c(C(=O)NC(C)C)n1
3 = Cc1c(Nc2nc3ccccc3s2)nnc2c1CCCN2c1ccc(-c2cnn(CC34CC5(C)CC(C)(CC(CCCN6CCCCCC6)(C5)C3)C4)c2C)c(C(=O)O)n1
Query block: // smallest pIC50 at index 0, largest at the end Output spec: a listing of the labels in the requested order.
Result block: 1, 2, 3

P = CNCC#Cc1ccc(OCCCc2sc(N(C)c3cc(C)c(Nc4nc5ccccc5s4)nn3)nc2C(=O)O)c(F)c1
Q = Cc1c(Nc2nc3ccccc3s2)nnc2c1CCCN2c1ccc(-c2cnn(C[C@]34C[C@]5(C)C[C@](C)(C3)C[C@@](OCCNC(CO)CO)(C5)C4)c2C)c(C(=O)O)n1
Query block: Just tell me: smaller pIC50 value, P or Q ? Answer = label.
Result block: P

* * *

system: H1650 cells; assay: CellTiterGlo (CTG) cell viability, 3D, 120 h, H1650 (Example 8); format: cell-based, human; conditions: Homo sapiens, NCI-H1650, H1650 3D, experiment n1, read-out: H1650 3D CTG IC50 n1
recorded endpoint: IC50 (nM)

Consider the following illustrative entries.
- compound: "Cc1c(Nc2nc3ccccc3s2)nnc2c1CCCN2c1ccc(-c2cnn(C[C@]34C[C@]5(C)C[C@](C)(C3)C[C@@](OCCN(C)CCCCO)(C5)C4)c2C)c(C(=O)O)n1"
  target under test: "H1650 cells"
  display unit: "nM"
  test value: 0.4
- compound: "CCN(C)CC#Cc1ccc(OCCCc2sc(N3CCCc4c3nnc(Nc3nc5ccccc5s3)c4C)nc2C(=O)O)c(F)c1"
  target under test: "H1650 cells"
  display unit: "nM"
  test value: 1.8
- compound: "Cc1c(Nc2nc3ccccc3s2)nnc2c1CCCN2c1nc(C(=O)O)c(CCCOc2ccc(C#CCN3CCCC3)cc2F)s1"
  target under test: "H1650 cells"
  display unit: "nM"
  test value: 0.7
- compound: "Cc1c(Nc2nc3ccccc3s2)nnc2c1CCCN2c1ccc(-c2cnn(C[C@]34C[C@]5(C)C[C@](C)(C3)C[C@@](OCCN(C)C)(C5)C4)c2C)c(C(=O)O)n1"
  target under test: "H1650 cells"
  display unit: "nM"
  test value: 0.22
- compound: "Cc1c(Nc2nc3ccccc3s2)nnc2c1CCCN2c1nc(C(=O)O)c(CCCOc2ccc(C#CC(C)N3CCN(C)CC3)cc2F)s1 (stereo not drawn)"
  target under test: "H1650 cells"
  display unit: "nM"
  test value: 0.7

a = Cc1c(Nc2nc3ccccc3s2)nnc2c1CCCN2c1ccc(-c2cnn(CC34CC5(C)CC(C)(CC(CCCNCCCCO)(C5)C3)C4)c2C)c(C(=O)O)n1
b = COCCCNCCOC12CC3(C)CC(C)(CC(Cn4ncc(-c5ccc(N(C)c6cc(C)c(Nc7nc8ccccc8s7)nn6)nc5C(=O)O)c4C)(C3)C1)C2
c = Cc1c(Nc2nc3ccccc3s2)nnc2c1CCCN2c1ccc(-c2cnn(CC34CC5(C)CC(C)(CC(CCCNCCC(=O)O)(C5)C3)C4)c2C)c(C(=O)O)n1
Query block: Order the records by IC50, with each subsequent value no larger than the one before. Output spec: a listing of the labels in the requested order.
Result block: c, a, b
(c: 10.7 nM, a: 5.07 nM, b: 0.57 nM)

I = Cc1c(Nc2nc3ccccc3s2)nnc2c1CCCN2c1nc(C(=O)O)c(CCCOc2ccc(C#CCN(C)CC[C@H](O)CO)cc2F)s1
II = Cc1c(Nc2nc3ccccc3s2)nnc2c1CCCN2c1ccc(-c2cnn(CC34CC5(C)CC(C)(CC(CCCNCC[C@H](O)CO)(C5)C3)C4)c2C)c(C(=O)O)n1
Query block: Kindly identify which of I and II has the larger recorded IC50 value. Answer = label.
Result block: II
(II: 3.78 nM, I: 0.65 nM)

a = Cc1c(Nc2nc3ccccc3s2)nnc2c1CCCN2c1ccc(-c2cnn(CC34CC5(C)CC(C)(C3)CC(OCCN3CCCC3)(C5)C4)c2C)c(C(N)=O)n1
b = Cc1c(Nc2nc3ccccc3s2)nnc2c1CCCN2c1ccc(-c2cnn(CC34CC5(C)CC(C)(C3)CC(OCCN(C)CCC(=O)O)(C5)C4)c2C)c(C(=O)O)n1
c = Cc1c(Nc2nc3ccccc3s2)nnc2c1CCCN2c1ccc(-c2cnn(C[C@]34C[C@]5(C)C[C@](C)(C3)C[C@@](OCCN3CCOCC3)(C5)C4)c2C)c(C(=O)O)n1
d = Cc1c(Nc2nc3ccccc3s2)nnc2c1CCCN2c1ccc(-c2cnn(CC34CC5(C)CC(C)(CC(CCCN(C)CCC(=O)O)(C5)C3)C4)c2C)c(C(=O)O)n1
e = Cc1c(Nc2nc3ccccc3s2)nnc2c1CCCN2c1ccc(-c2cnn(C[C@]34C[C@]5(C)C[C@](C)(C3)C[C@@](OCCNCCCCO)(C5)C4)c2C)c(C(=O)O)n1
Query block: // smallest IC50 at index 0, largest at the end Output spec: a listing of the labels in the requested order.
Result block: c, e, a, b, d
(c: 0.21 nM, e: 0.77 nM, a: 2 nM, b: 9.65 nM, d: 13.9 nM)
